Target: Alpha-2C adrenergic receptor (Homo sapiens)
Assay: compounds altering alpha2C-coupled GIRK flux – cell-based, HEK293 alpha2C/GIRK1/2, thallium flux, primary screen (AID 624);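 note: slope of fluorescence ratio to pre-addition baseline per second over 15 to 24 s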
Conditions: thallium flux BTC fluorescence, at 10 µM, actives lie on both sides
Calls of active or inactive are those of the source.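 Rule for the calls: active = fluorescence slope after compound addition differing from the mean of all screened samples at 99.7% confidence, in either direction; inactive = the rest.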
measure-name: slope

Below, each entry is followed by its recorded slope result.
Incoming: What value of slope has been reported for the following compound? COc1ccc(C(O)Cn2c(=N)n(CCCN(C)C)c3ccccc32)cc1 (centres undefined)
Outgoing: 0.00727 (inactive)

Incoming: What value of slope has been reported for the following compound? CC(=O)Nc1ccc(NC(=O)Cn2cnc3c(cnn3C(C)(C)C)c2=O)cc1
Outgoing: 0.00604 (inactive)

Incoming: What value of slope has been reported for the following compound? Cc1cc(C)nc(SCc2ccc3nonc3c2)n1
Outgoing: 0.00664 (inactive)

---
Incoming: What value of slope has been reported for the following compound? COC(=O)C1=CN(C(C)C)C=C(C(=O)OC)C1c1cc2c(cc1Br)OCO2
Outgoing: 0.00637 (inactive)

Incoming: What value of slope has been reported for the following compound? O=C(O)c1[nH]c2ccc(Cl)cc2c1CC(=O)N1CCN(C(=O)c2ccco2)CC1
Outgoing: 0.003 (inactive)

Incoming: What value of slope has been reported for the following compound? Cc1nnc(NC(=O)c2ccccc2F)s1
Outgoing: 0.00652 (inactive)

Incoming: What value of slope has been reported for the following compound? Cc1cc(=O)n2[nH]c(-c3ccc(Cl)cc3)cc2n1
Outgoing: 0.0052 (inactive)

Incoming: What value of slope has been reported for the following compound? CC(C)C(C(=O)Nc1ccc2c(c1)OCO2)N1C(=O)c2ccccc2C1=O (centres undefined)
Outgoing: 0.00641 (inactive)

Incoming: What value of slope has been reported for the following compound? Cc1cccc(C)c1-n1nnnc1SCSc1nnnn1-c1c(C)cccc1C
Outgoing: 0.00806 (inactive)

Incoming: What value of slope has been reported for the following compound? CC(C)(C)n1ncc2c(=O)n(CC(=O)NCc3ccccc3)cnc21
Outgoing: 0.00536 (inactive)

Incoming: What value of slope has been reported for the following compound? c1ccc(-c2cc(CSc3nc4ccccc4[nH]3)on2)cc1
Outgoing: 0.00533 (inactive)

Incoming: What value of slope has been reported for the following compound? CC(=O)Nc1nc2c(c3c1c(=O)oc1ccccc13)CC(C)CC2 (centres undefined)
Outgoing: 0.00575 (inactive)

Incoming: What value of slope has been reported for the following compound? CCc1c(C(=O)Nc2ncn(Cc3cccc(C)c3)n2)csc1C
Outgoing: 0.00495 (inactive)

Incoming: What value of slope has been reported for the following compound? COCCNC(=O)CN1CCN(Cc2cccc(Cl)c2)C1=O
Outgoing: 0.00677 (inactive)

---

Experiment: reduction of polyQ htt aggregates in cells – imaging, exon1htt(103Q)mCFP cells, high-content imaging, primary screen (AID 483);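 note: compound exposure lasted 3 days before fixation; percent of the per-plate median nuclei count of sample wells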
Conditions: exon1htt(103Q)mCFP cell line, aggregate imaging, at 2 µM; measured here: cell count, toxicity
Form field: nuclei count (one value per entry).
Your answer should be a plain number; it is taken to be in %.

Below, each entry is followed by its recorded nuclei count result.
Incoming: What value of nuclei count has been reported for the following compound? Cc1noc(/C=C/N(C)C)c1S(=O)(=O)N1CCCC(C(=O)N2CCCCC2)C1 (stereo not drawn)
Outgoing: 80.5

Incoming: What value of nuclei count has been reported for the following compound? O=C(CN1C(=O)NC(Cc2ccccc2)C1=O)Nc1ccccc1 (stereo not drawn)
Outgoing: 59.4

Incoming: What value of nuclei count has been reported for the following compound? CCOc1ccccc1NC(=O)C1CCCN(S(=O)(=O)c2cccc3cccnc23)C1 (stereo not drawn)
Outgoing: 124

Incoming: What value of nuclei count has been reported for the following compound? COc1ncnc2c1N=C1CC(C)(C)CC(N)=C1S2
Outgoing: 115

Incoming: What value of nuclei count has been reported for the following compound? O=S(=O)(NCCCCCNS(=O)(=O)c1ccccc1)c1ccccc1
Outgoing: 104

Incoming: What value of nuclei count has been reported for the following compound? CCN(C(=O)Cc1c(C(=O)O)[nH]c2ccccc12)c1cc(OC)ccc1OC
Outgoing: 120

Incoming: What value of nuclei count has been reported for the following compound? CN(C)C(=O)COc1ccc2cc(-c3ccccc3)c(=O)oc2c1
Outgoing: 89.5

Incoming: What value of nuclei count has been reported for the following compound? O=C(c1cc(-c2cccs2)on1)N1CCc2ccccc2C1
Outgoing: 106

---
Incoming: What value of nuclei count has been reported for the following compound? Cc1ccc2nc(NC(=O)Cn3cc4c(n3)CCCCC4)sc2c1
Outgoing: 100

Incoming: What value of nuclei count has been reported for the following compound? Nc1cccc2c1C(=O)N(c1ccccc1)C2=O
Outgoing: 87.9

Incoming: What value of nuclei count has been reported for the following compound? O=C(CSc1nc(-c2ccc(F)cc2)cs1)N1CCOCC1
Outgoing: 95.1

Incoming: What value of nuclei count has been reported for the following compound? COc1ccccc1-c1nnc(SCC(=O)N2CC(C)CC(C)C2)o1 (stereo not drawn)
Outgoing: 112

Incoming: What value of nuclei count has been reported for the following compound? CCOC(=O)C1CCN(C(=O)CN(c2ccc(Cl)c(C(F)(F)F)c2)S(C)(=O)=O)CC1
Outgoing: 107

Incoming: What value of nuclei count has been reported for the following compound? COc1ccccc1OCC(=O)Nc1ccc(S(=O)(=O)Nc2nc(C)cc(C)n2)cc1
Outgoing: 102

From: PubChem BioAssay
